Assay: Cytotoxicity in human SH-SY5Y cells assessed as reduction in cell viability after 72 hrs incubation by MTT assay
Details: SH-SY5Y cells
Property label: CC50 at 72 h (µM)
The reply should be a number in µM, with the unit left off.

S=C(NC1CCCCC1)N1CCC(c2cnc[nH]2)CC1 [THIOPERAMIDE]: 85.8

Output measured CC50 at 72 h for this item: CCN(C)C(=O)Oc1cccc([C@H](C)N(C)C)c1
67.8

###

Biological target: UniProt Q9Y5N1
Sequence (Q9Y5N1 whole entry): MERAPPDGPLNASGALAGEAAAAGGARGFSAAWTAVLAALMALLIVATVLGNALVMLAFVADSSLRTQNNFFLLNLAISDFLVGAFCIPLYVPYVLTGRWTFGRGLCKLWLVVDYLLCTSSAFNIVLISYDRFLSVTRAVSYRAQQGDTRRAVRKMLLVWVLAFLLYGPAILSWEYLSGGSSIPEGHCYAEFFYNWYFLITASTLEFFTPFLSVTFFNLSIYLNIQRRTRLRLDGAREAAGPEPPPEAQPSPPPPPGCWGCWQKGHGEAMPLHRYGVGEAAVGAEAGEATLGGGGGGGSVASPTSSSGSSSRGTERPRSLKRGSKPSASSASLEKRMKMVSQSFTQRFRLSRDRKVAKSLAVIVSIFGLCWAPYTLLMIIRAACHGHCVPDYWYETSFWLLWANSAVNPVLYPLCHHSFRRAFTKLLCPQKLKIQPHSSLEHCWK
Experiment: Inhibition of human H3R expressed in methylhistamine-induced human H3-bla U2OS cells incubated for 30 mins by beta-lactamase complementation technology
Format: cell-based
Details: read-out: IC50
Listed here: items and their measured IC50.

Solved entries:
COc1ccc(-c2coc3cc(OCCNC4CCCCC4)ccc3c2=O)cc1: > 50 µM
COc1ccc(-c2coc3cc(OCCOCCN4CCCCC4)ccc3c2=O)cc1: > 50 µM
COc1ccc(-c2coc3cc(OCCNc4c5c(nc6ccccc46)CCCC5)ccc3c2=O)cc1: > 10 µM
O=c1c(-c2ccc(O)cc2)coc2cc(OCCCCN3CCCCC3)ccc12: > 50 µM

Turning now to a further record.
Note IC50 for the compound shown: COc1ccc(-c2coc3cc(OCCNC4CCCC4)ccc3c2=O)cc1
> 50 µM
